# System: peripheral blood lymphocytes collected from swine exposed to ASFV
# Type: cell-based
PROPERTY MEASURED: Number of Spots

- 1955 (SSAELYRKM) [compound 1955]: 14
- 1941 (AIEEEDIQF) [compound 1941]: 12
- 279 (KTDLLNNEF) [compound 279]: 17
- 1345 (RVRFSLIRV) [compound 1345]: 16
- 2194 (RSCDYAPGFY) [compound 2194]: 12
- 2142 (RFFKKLLTH) [compound 2142]: 12
- 357 (YSYCFIKHF) [compound 357]: 13
- 1388 (LVYELPAPF) [compound 1388]: 14
- 608 (INCFNYCILY) [compound 608]: 13
- 1379 (VVSASAINF) [compound 1379]: 13
- 1150 (KSQDTLHRF) [compound 1150]: 12
- 1580 (SNMKQFCKI) [compound 1580]: 12
- 1205 (QDYSLTFLLK) [compound 1205]: 17

====

# Tested on: peripheral blood lymphocytes collected from swine exposed to ASFV
# Assay type: cell-based
PROPERTY MEASURED: Number of Spots

* 1628 (SAMLEFKKF) [compound 1628] | 12
* 925 (KKQKHVSLL) [compound 925] | 14
* 971 (LTLSSNYFY) [compound 971] | 12
* 869 (GLAALVSPY) [compound 869] | 13
* 69 (KVNKSMPLI) [compound 69] | 255
* 889 (MMHYPTFNW) [compound 889] | 16
* 1693 (EVYAPYMHY) [compound 1693] | 12

====

# System: peripheral blood lymphocytes collected from swine exposed to ASFV
# Format: cell-based
PROPERTY MEASURED: Number of Spots

- 2185 (HIFYRPLYRY) [compound 2185]: 15
- 449 (HTIYQSYSL) [compound 449]: 19
- 1544 (GSLYPTQFDY) [compound 1544]: 14
- 1706 (RLQTPIPVY) [compound 1706]: 13
- 2038 (CGKRNCPLYY) [compound 2038]: 12
- 2137 (KNYFRFFKKL) [compound 2137]: 12
- 1483 (KTIKHYEQL) [compound 1483]: 12
- 439 (ISPEKFIKI) [compound 439]: 16
- 64 (KVNNSMPLI) [compound 64]: 32
- 1507 (ATVSAIELEY) [compound 1507]: 13
- 2146 (KLLTHFNIYR) [compound 2146]: 16
- 1090 (ALFPQYISYY) [compound 1090]: 106
- 757 (CFMMQCKSIY) [compound 757]: 16
- 1649 (TLMDQPTY) [compound 1649]: 18
- 280 (SLSTLLLKY) [compound 280]: 12
- 1019 (TQPLNPFPL) [compound 1019]: 21
- 1566 (ARIYAGQGY) [compound 1566]: 14
- 921 (SVLLRDSGYY) [compound 921]: 14
- 1001 (FKLYYIPLSI) [compound 1001]: 21
- 2075 (KSCYPLVFI) [compound 2075]: 12
- 2126 (TAIQKNYFRF) [compound 2126]: 13
- 1810 (KTIFNNVRY) [compound 1810]: 13
- 1106 (CSSCMVRTY) [compound 1106]: 130
- 467 (QAYALEYAM) [compound 467]: 17
- 1184 (LSDLRNFSF) [compound 1184]: 16
- 836 (RSEWASSNTF) [compound 836]: 31
- 241 (MVYNFNTLY) [compound 241]: 16
